# assayed system: HLA-DR molecule encoded by the allele DRB1*0101 (human)
# method summary: competition ELISA vs biotinylated HA 306-318
experimental readout: pIC50
Quick note: pIC50 values are minus log10 of concentrations in mol/L.

Known results for binders:
1. FGWCYKLVPVEPDKV (modifications not checked) [Nef10.2 peptide (positions 139-153 of the HIV-1 Nef protein, Bru strain), P03406 139-153] ... 7.07
2. EANKGENTSLLHPVSLHGMDDPEREVLEWRF (modifications not checked) [Nef11 peptide (positions 155-185 of the HIV-1 Nef protein, Bru strain), P03406 155-185] ... 5.70
3. GVRYPLTFGWCYKLVP (modifications not checked) [Nef9 peptide (positions 132-147 of the HIV-1 Nef protein, Bru strain), P03406 132-147] ... 8.07

Okay, next one:
Incoming: Could you tell me which pIC50 is on file for VPVEPDKVEEANKGE (modifications not checked) [Nef10.5 peptide (positions 146-160 of the HIV-1 Nef protein, Bru strain), P03406 146-160] ?
Outgoing: 6.26
